assayText: A CellTox Green Cytotoxicity Assay to monitor cytotoxicity in HepG2 cells - 32 hour (AID 1224883); further: nearly all actives have a fitted effect of over 50% in size
experimentalSetup: CellTox Green fluorescence; series mostly up to 76.8 µM
Inconclusive results are not listed. Calls of active or inactive are those of the source. The call rests on the fitted dose curve; in most records, active means well fitted activation curve with a large enough effect in the repeat runs; inconclusive means weak or mixed curves; inactive means flat fitted curve, though single readings scatter.
Hello, when you answer, please use one of the following outcomes: YES for active, NO for inactive

input: For `C=CC(=O)OCC(CO)(COC(=O)C=C)COC(=O)C=C` , what call appears in the results of this test?
output: YES

input: Hello, I am checking results. What call was entered for `CCc1cc(SCc2sc(-c3ccc(C(F)(F)F)cc3)nc2CN2CCN(c3ccc(OC)cc3)CC2)ccc1OCC(=O)O` ?
output: NO

input: GET /call?item= `CCN(C(=O)c1cc(C)cc(OC[C@H](C)Nc2ccncc2)c1)C(C)C` returns the recorded outcome of this test.
output: NO

input: Could you check what this test reported for `Oc1cccc2cc3cccc(O)c3c(O)c12` ?
output: NO

input: Just curious, what result did `CCCCCOC(=O)CCCC` get here?
output: NO

input: // return assay outcome for Clc1ccc(C(Cn2ccnc2)OCc2ccc(Sc3ccccc3)cc2)c(Cl)c1 (stereo not given)
output: NO

input: Would you mind telling me which call this test gave `N=C1N=C(N)c2cc3ccccc3cc21` ?
output: YES

input: I'd appreciate the recorded outcome for `COc1c(C)c2c(c(O)c1C/C=C(\C)CCC(=O)O)C(=O)OC2` from this test.
output: NO

input: For `Cc1cc(C2CCCCC2)n(O)c(=O)c1` , which call appears in the assay record?
output: NO

input: # outcome recorded in this test, key = `CCCCCCCCCCCC(=O)NCCCN(C)C`
output: YES

input: Dear all, I need the recorded test outcome for `O=c1[nH]cnc2nc[nH]c12` , thank you.
output: NO

input: I would be grateful if you could indicate the recorded call for Cc1cccc(CN2CCN(C(c3ccccc3)c3ccc(Cl)cc3)CC2)c1 (stereo not given) .
output: NO

input: Recorded call for `CCOC(=O)O[C@H](C)OC(=O)c1ccc2c(c1)cc(C(=O)NC1CCN(C(C)C)CC1)n2Cc1cc(-c2ccc(Cl)s2)on1` ?
output: YES

input: Query: recorded result category for `O=S1(=O)CC(Cl)(Cl)C(Cl)(Cl)C1` in this test
output: YES

input: Record request — test call for `CCCCc1oc2ccc(NS(C)(=O)=O)cc2c1C(=O)c1ccc(OCCCN(CCCC)CCCC)cc1`
output: YES

input: Short answer needed: outcome of this test for `O=C(N/N=C/c1ccccc1O)c1ccncc1` ?
output: NO

input: Dear all, I need the recorded test outcome for `[O-][n+]1ccccc1SSc1cccc[n+]1[O-]` , thank you.
output: YES

input: What did the test return for `COC(=O)c1cc(Cl)ccc1OC` ?
output: NO

input: # outcome recorded in this test, key = `O=C(O)c1ccc(Cl)c(Cl)c1`
output: NO

input: # outcome recorded in this test, key = `Cc1cc(O)c2ccccc2c1O`
output: YES

input: Could you check what this test reported for `Oc1cccc(-c2c3nc(c(-c4cccc(O)c4)c4ccc([nH]4)c(-c4cccc(O)c4)c4nc(c(-c5cccc(O)c5)c5ccc2[nH]5)CC4)C=C3)c1` ?
output: NO

input: Test call, this compound: `Nc1cc(C(F)(F)F)ccc1S`
output: NO

input: Entry CCCCCCCCS(=O)C(C)Cc1ccc2c(c1)OCO2 (stereo not given) : call = ?
output: NO

input: Write down the call the test reported for this compound. Item: CCCCC(CC)COC(=O)c1ccccc1C(=O)O (stereo not given)
output: NO

input: Given `CC(C)(C)c1ccc(C(=O)O)cc1` , state the outcome it received in this test.
output: NO

---

assayText: qHTS assay to identify small molecule antagonists of the androgen receptor (AR) signaling pathway - cell viability counter screen (AID 743033; further: nearly all actives have a fitted effect of over 45% in size)
experimentalSetup: AR-bla HEK293 viability, CellTiter-Glo luminescence, 16 h; series mostly up to 58.5 µM
Results filed as inconclusive are left out. The source made the active and inactive calls. Calls follow the shape of the dose curve; as a rule, active = well fitted cell-killing curve with a large enough effect in the repeat runs; inconclusive = weak or mixed curves; inactive = no such curve, though single readings can be large or run the other way.
Write down the outcome that applies. Available outcomes: active, inactive

input: # lookup: test call for `C=CC(=O)OCCn1c(=O)n(CCOC(=O)C=C)c(=O)n(CCOC(=O)C=C)c1=O`
output: active

input: For `Cc1cccc(S(=O)(=O)O)c1C` , what call appears in the results of this test?
output: inactive

input: So what was the verdict on `CCCCN1CCCC[C@H]1C(=O)Nc1c(C)cccc1C` in this test?
output: inactive

input: Can you look up the reported call for `Nc1ccc(N)c2ccccc12` for me?
output: active

input: What did this assay record as the result for CC(C)OC(=O)c1cc2c(OCC(O)CNC(C)(C)C)cccc2[nH]1 (configuration not stated) ?
output: inactive

input: What did the test return for `O=C1C=CC(=O)N1c1ccc(Cc2ccc(N3C(=O)C=CC3=O)cc2)cc1` ?
output: active

input: Could you kindly confirm the outcome this assay logged for `Nc1ccc2cc(S(=O)(=O)O)cc(O)c2c1N=Nc1ccccc1C(F)(F)F` ?
output: inactive

input: Could you kindly confirm the outcome this assay logged for `O=C(O)c1cc(O)c2c(c1)C(=O)c1cccc(O)c1C2=O` ?
output: inactive

input: Write down the call the test reported for this compound. Item: `C[n+]1ccn(Cc2ccccc2)c1`
output: inactive

input: // param item: `O=C(NO)C1(NS(=O)(=O)c2ccc(Oc3ccc(F)cc3)cc2)CCOCC1` ; yields the recorded call
output: inactive

input: Lab log entry: `O=C(OC[C@H]1O[C@@H](OC(=O)c2cc(O)c(O)c(OC(=O)c3cc(O)c(O)c(O)c3)c2)[C@H](OC(=O)c2cc(O)c(O)c(OC(=O)c3cc(O)c(O)c(O)c3)c2)[C@@H](OC(=O)c2cc(O)c(O)c(OC(=O)c3cc(O)c(O)c(O)c3)c2)[C@@H]1OC(=O)c1cc(O)c(O)c(OC(=O)c2cc(O)c(O)c(O)c2)c1)c1cc(O)c(O)c(OC(=O)c2cc(O)c(O)c(O)c2)c1` — outcome as called in the assay?
output: active

input: Just curious, what result did CCC1OCC(COc2ccc(Oc3ccccc3)cc2)O1 (configuration not stated) get here?
output: inactive

input: Look up the recorded call for `C[C@H]1[C@H]2CC[C@H]3[C@@H]4CC=C5C[C@@H](N(C)C)CC[C@]5(C)[C@H]4CC[C@]23CN1C` in this test.
output: inactive

input: Which outcome was assigned to `CCOC(=O)O[C@]1(C(=O)OCCl)CC[C@H]2[C@@H]3CCC4=CC(=O)C=C[C@]4(C)[C@H]3[C@@H](O)C[C@@]21C` in this test?
output: inactive

input: Write down the call the test reported for this compound. Item: `CSc1ccc(C(=O)c2[nH]c(=O)[nH]c2C)cc1`
output: inactive

input: Test call for this compound, please: `O=C(Nc1cccc([N+](=O)[O-])c1)c1cc2ccccc2cc1O`
output: active

input: Would you mind telling me which call this test gave CCC(C)(C)C1CCCCC1OC(C)=O (configuration not stated) ?
output: inactive

input: Short answer needed: outcome of this test for `Cc1c(C)c2c(c(C)c1OC(=O)CCC(=O)O)CC[C@@](C)(CCC[C@H](C)CCC[C@H](C)CCCC(C)C)O2` ?
output: inactive

input: Recorded test call requested for CCCCC(CC)COC(=O)c1ccccc1C(=O)O (configuration not stated)
output: inactive

input: Look up the recorded call for `O=c1c(-c2ccccc2)c1-c1ccccc1` in this test.
output: active

input: For this compound, state the assay outcome: `CC(C)(C)c1ccc(C(=O)CCCN2CCC(OC(c3ccccc3)c3ccccc3)CC2)cc1`
output: inactive

input: I would be grateful if you could indicate the recorded call for `Cc1cc2c(cc1C(F)(F)F)N(C(=O)Nc1ccc(Oc3cccnc3C)nc1)CC2` .
output: inactive

input: Please let me know the test result on file for `Cc1onc(-c2c(Cl)cccc2Cl)c1C(=O)N[C@@H]1C(=O)N2[C@@H]1SC(C)(C)[C@@H]2C(=O)O` .
output: inactive

input: What classification did COC(=O)C1=C(C)NC(C)=C(C(=O)OCC(C)C)C1c1ccccc1[N+](=O)[O-] (configuration not stated) end up with in this test?
output: active

input: GET /call?item= `Fc1ccc([C@@H]2CCNC[C@H]2COc2ccc3c(c2)OCO3)cc1` returns the recorded outcome of this test.
output: active

input: What classification did `CNC(=O)c1ccccc1` end up with in this test?
output: inactive

input: # fetch the recorded call for `Oc1c(Cl)cc(Cl)c2cccnc12` here
output: inactive

input: Short answer needed: outcome of this test for `Clc1ccc2nsnc2c1NC1=NCCN1` ?
output: inactive

input: GET /call?item= `CC(C)=CCOc1ccc(/C=C/C(=O)c2ccc(OCC=C(C)C)cc2OCC(=O)O)cc1` returns the recorded outcome of this test.
output: inactive

input: Test call for this compound, please: `CCCC/C=C/CCCCO`
output: inactive

input: Hello, I am checking results. What call was entered for `CCCCCCOC(=O)c1ccc(O)cc1` ?
output: inactive

input: Can you look up the reported call for `NNC(=O)c1cccc(C(=O)NN)c1` for me?
output: inactive

input: Could you please tell me the result logged for `CCCCCOC(=O)CCCC` in this assay?
output: inactive

input: Tell me the assay call for `O=[N+]([O-])c1cc([N+](=O)[O-])c2ccc(S(=O)(=O)O)cc2c1O` please.
output: inactive

input: Entry `Cc1[nH]nc2c1N=C(c1ccccc1Cl)c1cc([N+](=O)[O-])ccc1N2` : call = ?
output: active

input: State the result this test recorded for `CCCCCCCCCCCCc1ccc(O)cc1` .
output: active

input: Which outcome was entered for the compound `C[C@]12CCC(=O)C=C1CC[C@@H]1[C@@H]2[C@@H](O)C[C@@]2(C)[C@H]1CC[C@]2(O)C(=O)COC(=O)CCC(=O)O` in this test?
output: inactive

input: Field: outcome | Entry: `Clc1ccc2n[nH]nc2c1`
output: inactive

input: How was CCCN(CCC)C(=O)C(CCC(=O)OCCCN1CCN(CCOC(=O)Cc2c(C)n(C(=O)c3ccc(Cl)cc3)c3ccc(OC)cc23)CC1)NC(=O)c1ccccc1 (configuration not stated) classified in this test?
output: inactive

input: # outcome recorded in this test, key = `COc1ccc(CN2CCN(C(c3ccc(F)cc3)c3ccc(F)cc3)CC2)c(OC)c1OC`
output: active

input: Returns: the outcome recorded for `O=C(Oc1cccc2cccnc12)c1ccccc1` in this assay.
output: active

input: Hi, do you know how O=C(OCC1CO1)C1CCCCC1C(=O)OCC1CO1 (configuration not stated) came out in this test?
output: inactive

Just for reference, PubChem BioAssay (Tox21) is where these values come from.
